Known pIC50 of a selection of compounds
target.under.test: UniProt Q05941
Sequence (Q05941 23-502): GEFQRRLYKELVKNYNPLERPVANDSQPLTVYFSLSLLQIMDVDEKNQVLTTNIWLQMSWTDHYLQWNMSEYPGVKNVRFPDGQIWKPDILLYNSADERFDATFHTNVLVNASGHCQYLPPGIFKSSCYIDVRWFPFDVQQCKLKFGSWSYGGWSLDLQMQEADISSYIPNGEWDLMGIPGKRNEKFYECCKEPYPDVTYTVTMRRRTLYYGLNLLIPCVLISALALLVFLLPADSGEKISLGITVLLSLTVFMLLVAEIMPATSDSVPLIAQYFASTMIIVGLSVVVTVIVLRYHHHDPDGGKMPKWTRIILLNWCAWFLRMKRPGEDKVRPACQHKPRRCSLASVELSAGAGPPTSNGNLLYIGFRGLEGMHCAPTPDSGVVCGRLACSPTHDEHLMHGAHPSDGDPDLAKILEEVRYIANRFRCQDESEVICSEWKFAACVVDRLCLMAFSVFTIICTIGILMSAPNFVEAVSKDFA
experiment.description: [3H]-MLA displacement from rat hippocampal membranes
Format: binding
pIC50: −log10 of the molar value.
endpoint.label: pIC50

{"given.smiles": "O=c1c(O)c(-c2ccc(O)c(O)c2)oc2cc(O)c(O)c(O)c12", "target.under.test": "UniProt Q05941", "endpoint.label": "pIC50", "measured.number": 4.85}
{"given.smiles": "COc1cc(-c2[o+]c3cc(O)cc(O)c3cc2O)cc(OC)c1O", "target.under.test": "UniProt Q05941", "endpoint.label": "pIC50", "measured.number": 4.05}
